src = patent US10544134B2

test system: hepatocellular carcinoma cell HEPG2; assay: Tumor cell proliferation inhibitory activity test in vitro (MTT); assay type: cell-based, human; conditions: Homo sapiens, HepG2, 72 hours, read-out: IC50 of compounds for tumor cells, Activity, HEPG2
pIC50: −log10 of the molar value.
Reported pIC50 is given for each of the following compounds.

Consider the following illustrative entries.
-- ask Under hepatocellular carcinoma cell HEPG2: pIC50 value of COc1cccc(-c2ccc(-c3cc(=O)oc4cc(OC)ccc34)s2)c1 ?
-- reply < 5.30

-- ask What do you get for COc1ccc2c(-c3ccc(-c4ccc5c(c4)OCO5)s3)cc(=O)oc2c1 ?
-- reply < 5.30

-- ask What do you get for O=c1cc(-c2ccc(-c3cccc(Cl)c3)s2)c2ccccc2o1 ?
-- reply < 5.30

-- ask What do you get for COc1ccc(-c2ccc(-c3cc(=O)oc4ccccc34)o2)cc1 ?
-- reply < 5.30

-- ask What do you get for COc1ccc(N(C)c2cc(=O)oc3ccccc23)cc1NC(=O)CCC(=O)O ?
-- reply 5.30 to 7.00

-- ask What do you get for CCOC(=O)COc1cc(N(C)c2cc(=O)oc3ccccc23)ccc1OC ?
-- reply 7.00 to 8.00

Further cases:
-- ask Under hepatocellular carcinoma cell HEPG2: pIC50 value of COc1ccc2c(-c3ccc(-c4ccc5c(c4)OCO5)o3)cc(=O)oc2c1 ?
-- reply < 5.30

-- ask What do you get for COc1ccccc1-c1ccc(-c2cc(=O)oc3ccccc23)o1 ?
-- reply < 5.30

-- ask What do you get for O=c1cc(-c2ccc(-c3ccc4c(c3)OCO4)s2)c2ccccc2o1 ?
-- reply < 5.30

-- ask What do you get for COc1ccc2c(-c3ccc(-c4ccccc4OC)o3)cc(=O)oc2c1 ?
-- reply < 5.30

-- ask What do you get for COc1ccc(N(C)c2cc(=O)oc3ccccc23)cc1 ?
-- reply 7.00 to 8.00

-- ask What do you get for O=c1cc(-c2ccc(-c3ccccc3Cl)s2)c2ccccc2o1 ?
-- reply < 5.30

-- ask What do you get for O=c1cc(-c2ccc(-c3cccc(Cl)c3)o2)c2ccccc2o1 ?
-- reply < 5.30

-- ask What do you get for Cc1ccc(-c2ccc(-c3cc(=O)oc4ccccc34)o2)cc1 ?
-- reply < 5.30

-- ask What do you get for COc1ccc2c(-c3ccc(-c4ccccc4OC)s3)cc(=O)oc2c1 ?
-- reply < 5.30

-- ask What do you get for CS(=O)(=O)c1ccc(-c2ccc(-c3cc(=O)oc4ccccc34)o2)cc1 ?
-- reply < 5.30

-- ask What do you get for COc1ccc2c(-c3ccc(-c4cc(OC)c(OC)c(OC)c4)o3)cc(=O)oc2c1 ?
-- reply < 5.30

-- ask What do you get for COc1ccc2c(c1)CN(c1cc(=O)oc3cc(OC)ccc13)CCC2 ?
-- reply 5.30 to 7.00

-- ask What do you get for COc1ccc2c(c1)CCCN2c1cc(=O)oc2cc(OC)ccc12 ?
-- reply 5.30 to 7.00

-- ask What do you get for O=c1cc(-c2ccc(-c3ccccc3)o2)c2ccccc2o1 ?
-- reply < 5.30

-- ask What do you get for COc1ccc(N(C)c2cc(=O)oc3ccccc23)cc1OC(=O)C(CCSC)NC(=O)OC(C)(C)C (stereo not shown) ?
-- reply 5.30 to 7.00

-- ask What do you get for COc1cccc(-c2ccc(-c3cc(=O)oc4ccccc34)s2)c1 ?
-- reply < 5.30

-- ask What do you get for CCOC(=O)c1cccc(-c2ccc(-c3cc(=O)oc4cc(OC)ccc34)o2)c1 ?
-- reply < 5.30

-- ask What do you get for CCOC(=O)c1cccc(-c2ccc(-c3cc(=O)oc4ccccc34)s2)c1 ?
-- reply < 5.30

-- ask What do you get for CCOC(=O)c1cccc(-c2ccc(-c3cc(=O)oc4cc(OC)ccc34)s2)c1 ?
-- reply < 5.30

----------
system: ovarian cancer cell A2780s; experiment: Tumor cell proliferation inhibitory activity test in vitro (MTT); assay type: cell-based; conditions: Homo sapiens, sensitive cells, 72 hours
Reported IC50 is given for each of the following compounds.
Value expressed in nM; do not type the unit.

-- ask # lookup: IC50 of CC[C@]1(O)C[C@H]2CN(CCc3c([nH]c4ccccc34)[C@@](C(=O)OC)(c3cc4c(cc3OC)N(C=O)[C@H]3[C@@](O)(C(=O)OC)[C@H](OC(C)=O)[C@]5(CC)C=CCN6CC[C@]43[C@@H]65)C2)C1
-- reply 22.4

-- ask What do you get for COc1ccc(N(C)c2cc(=O)oc3ccccc23)cc1OC(=O)C1CCCC1 ?
-- reply 1.68

-- ask What do you get for COc1ccc(N(C)c2nc(C)nc3ccccc23)cc1 ?
-- reply 3.16

Next compound, IC50 to be filled in.
-- ask # lookup: IC50 of CC(=O)O[C@H]1C(=O)[C@@]2(C)[C@H]([C@H](OC(=O)c3ccccc3)[C@]3(O)C[C@H](OC(=O)[C@H](O)[C@@H](NC(=O)c4ccccc4)c4ccccc4)C(C)=C1C3(C)C)[C@]1(OC(C)=O)CO[C@@H]1C[C@@H]2O
-- reply 58.1

----------
tested on: melanoma A375; experiment: Tumor cell proliferation inhibitory activity test in vitro (MTT); type: cell-based, human; conditions: Homo sapiens, A-375, 72 hours, read-out: IC50 of compounds for tumor cells, Activity, A375
pIC50: −log10 of the molar value.
measure.name: pIC50

Consider the following illustrative entries.
-- ask # lookup: pIC50 of COc1ccccc1-c1ccc(-c2cc(=O)oc3ccccc23)o1
-- reply < 5.30

-- ask What do you get for CCN(CC)c1ccc2c(N(C)c3ccc(OC)cc3)cc(=O)oc2c1 ?
-- reply 7.00 to 8.00

-- ask What do you get for COc1cccc(-c2ccc(-c3cc(=O)oc4cc(OC)ccc34)s2)c1 ?
-- reply < 5.30

-- ask What do you get for Cc1ccc(-c2ccc(-c3cc(=O)oc4ccccc34)o2)cc1 ?
-- reply < 5.30

-- ask What do you get for COc1ccc2c(c1)CCCN2c1cc(=O)oc2cc(OC)ccc12 ?
-- reply 5.30 to 7.00

Further cases:
-- ask # lookup: pIC50 of COc1ccc2c(N(C)c3cc(OC)c(OC)c(OC)c3)cc(=O)oc2c1
-- reply 7.00 to 8.00

-- ask What do you get for COc1ccc(N(C)c2cc(=O)oc3cc(OC)ccc23)cc1 ?
-- reply 7.00 to 8.00

-- ask What do you get for COc1cccc(-c2ccc(-c3cc(=O)oc4ccccc34)s2)c1 ?
-- reply < 5.30

-- ask What do you get for COc1ccc2c(c1)CCCN2c1cc(=O)oc2ccccc12 ?
-- reply < 5.30

-- ask What do you get for COc1ccc2c(-c3ccc(-c4cc(OC)c(OC)c(OC)c4)o3)cc(=O)oc2c1 ?
-- reply < 5.30

----------
system: colon carcinoma cell HCT-8; experiment: Tumor cell proliferation inhibitory activity test in vitro (MTT); format: cell-based; conditions: Homo sapiens, sensitive cells, 72 hours
measure.name: IC50
Please report the result as a number followed by the unit.

Consider the following illustrative entries.
-- ask # lookup: IC50 of COc1ccc(N(C)c2nc(C)nc3ccccc23)cc1 [MPC-6827]
-- reply 3.12 nM

-- ask What do you get for CC[C@]1(O)C[C@H]2CN(CCc3c([nH]c4ccccc34)[C@@](C(=O)OC)(c3cc4c(cc3OC)N(C=O)[C@H]3[C@@](O)(C(=O)OC)[C@H](OC(C)=O)[C@]5(CC)C=CCN6CC[C@]43[C@@H]65)C2)C1 [Vincristin, vincristin] ?
-- reply 14.8 nM

Next compound, IC50 to be filled in.
-- ask # lookup: IC50 of CC(=O)O[C@H]1C(=O)[C@@]2(C)[C@H]([C@H](OC(=O)c3ccccc3)[C@]3(O)C[C@H](OC(=O)[C@H](O)[C@@H](NC(=O)c4ccccc4)c4ccccc4)C(C)=C1C3(C)C)[C@]1(OC(C)=O)CO[C@@H]1C[C@@H]2O [Taxol]
-- reply 37 nM

----------
Reported pIC50 is given for each of the following compounds.
system: hepatocellular carcinoma cell HEPG2; test: Tumor cell proliferation inhibitory activity test in vitro (MTT); format: cell-based, human; conditions: Homo sapiens, HepG2, 72 hours, read-out: IC50 of compounds for tumor cells, Activity, HEPG2
pIC50: −log10 of the molar value.

-- ask Under hepatocellular carcinoma cell HEPG2: pIC50 value of COc1ccc2c(-c3ccc(-c4ccccc4Cl)s3)cc(=O)oc2c1 ?
-- reply < 5.30

-- ask What do you get for COC(=O)CCCCCCCCCCOc1cc(N(C)c2cc(=O)oc3ccccc23)ccc1OC ?
-- reply < 5.30

-- ask What do you get for COc1ccc2c(-c3ccc(-c4ccc(C)cc4)o3)cc(=O)oc2c1 ?
-- reply < 5.30

-- ask What do you get for COc1ccc(N(C)c2cc(=O)oc3ccccc23)cc1NC(=O)C1CCCC1 ?
-- reply 5.30 to 7.00

Next compound, pIC50 to be filled in.
-- ask Under hepatocellular carcinoma cell HEPG2: pIC50 value of COc1ccc2c(-c3ccc(-c4cccc(Cl)c4)s3)cc(=O)oc2c1 ?
-- reply < 5.30
